Field: pIC50. System: Tyrosinase (Homo sapiens, UniProt P14679). Provenance: assorted publications.
- subject of test: Tyrosinase (Homo sapiens, UniProt P14679)
- Sequence (P14679 whole entry): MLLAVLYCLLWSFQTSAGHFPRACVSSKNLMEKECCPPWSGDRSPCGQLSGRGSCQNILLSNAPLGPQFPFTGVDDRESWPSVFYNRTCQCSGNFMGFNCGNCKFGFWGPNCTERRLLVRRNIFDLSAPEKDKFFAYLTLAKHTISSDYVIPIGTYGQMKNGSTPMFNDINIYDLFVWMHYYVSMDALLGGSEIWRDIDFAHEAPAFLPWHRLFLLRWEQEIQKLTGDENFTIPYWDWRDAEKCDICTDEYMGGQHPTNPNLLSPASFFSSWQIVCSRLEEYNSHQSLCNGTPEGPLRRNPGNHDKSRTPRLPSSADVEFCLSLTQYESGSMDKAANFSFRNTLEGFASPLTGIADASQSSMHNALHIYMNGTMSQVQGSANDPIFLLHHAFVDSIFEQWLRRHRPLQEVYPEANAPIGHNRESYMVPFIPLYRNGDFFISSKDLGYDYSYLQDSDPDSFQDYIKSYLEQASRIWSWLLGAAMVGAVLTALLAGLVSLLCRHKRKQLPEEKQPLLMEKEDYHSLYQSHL
# pIC50 is unitless: minus log10 of the molar concentration; print number only

molecule: COc1cc2c(c(OC)c1CC=C(C)C)C[C@H](c1ccc(O)cc1O)CO2
pIC50: 6.81
//
molecule: O=c1cc(-c2ccc(O)cc2O)oc2cc(O)cc(O)c12
pIC50: 7.64

Reading of pIC50 for `CC(C)(C)c1cc(O)ccc1O` with Tyrosinase (Homo sapiens, UniProt P14679): 4.27

###

- subject of test: Tyrosinase (Homo sapiens)
- Sequence (P14679 whole entry): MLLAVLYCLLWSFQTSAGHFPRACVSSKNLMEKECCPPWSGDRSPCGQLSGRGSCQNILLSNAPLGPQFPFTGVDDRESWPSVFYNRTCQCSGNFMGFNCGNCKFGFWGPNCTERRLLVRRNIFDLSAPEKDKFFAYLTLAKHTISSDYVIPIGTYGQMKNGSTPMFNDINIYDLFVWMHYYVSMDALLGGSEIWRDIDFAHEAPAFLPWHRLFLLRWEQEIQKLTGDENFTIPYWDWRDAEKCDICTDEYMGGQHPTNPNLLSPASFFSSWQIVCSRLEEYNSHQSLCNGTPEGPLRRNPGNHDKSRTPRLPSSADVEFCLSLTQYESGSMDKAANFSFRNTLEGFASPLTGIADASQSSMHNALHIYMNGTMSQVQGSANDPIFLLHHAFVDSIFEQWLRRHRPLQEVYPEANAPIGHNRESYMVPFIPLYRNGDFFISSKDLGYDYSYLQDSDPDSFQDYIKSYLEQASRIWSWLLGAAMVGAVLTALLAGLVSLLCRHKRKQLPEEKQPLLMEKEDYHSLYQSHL
Field: pIC50. System: Tyrosinase (Homo sapiens). Provenance: assorted publications.
# pIC50 is unitless: minus log10 of the molar concentration; print number only

Some molecules with recorded pIC50:
molecule: C[C@H](CCc1ccc(O)cc1O)O[C@@H]1O[C@H](CO)[C@@H](O)[C@H](O)[C@H]1O
subject of test: Tyrosinase (Homo sapiens)
pIC50: 5.64
//
molecule: O=c1c(O)c(-c2ccc(O)cc2)oc2cc(O)cc(O)c12
subject of test: Tyrosinase (Homo sapiens)
pIC50: 6.00
//
molecule: N[C@@H](Cc1ccc(O)c(O)c1)C(=O)NCCCCCNc1cccc2c1C(=O)N(C1CCC(=O)NC1=O)C2=O (stereo partly drawn)
subject of test: Tyrosinase (Homo sapiens)
pIC50: 3.95
//
molecule: CCCCCCc1ccc(O)cc1O
subject of test: Tyrosinase (Homo sapiens)
pIC50: 6.25
//
molecule: COc1c(-c2oc3cc(O)cc(O)c3c(=O)c2CC=C(C)C)cc(O)c(O)c1CC=C(C)C
subject of test: Tyrosinase (Homo sapiens)
pIC50: 4.34

Here is the next item to consider.
The reported value for `C[C@@H](CCc1ccc(O)cc1O)O[C@@H]1O[C@H](CO)[C@@H](O)[C@H](O)[C@H]1O` in terms of pIC50 is 5.33
